target: Plasmodium falciparum lactate dehydrogenase (PfLDH) (Plasmodium falciparum, UniProt Q27743 1-316)
Sequence (Q27743 whole entry): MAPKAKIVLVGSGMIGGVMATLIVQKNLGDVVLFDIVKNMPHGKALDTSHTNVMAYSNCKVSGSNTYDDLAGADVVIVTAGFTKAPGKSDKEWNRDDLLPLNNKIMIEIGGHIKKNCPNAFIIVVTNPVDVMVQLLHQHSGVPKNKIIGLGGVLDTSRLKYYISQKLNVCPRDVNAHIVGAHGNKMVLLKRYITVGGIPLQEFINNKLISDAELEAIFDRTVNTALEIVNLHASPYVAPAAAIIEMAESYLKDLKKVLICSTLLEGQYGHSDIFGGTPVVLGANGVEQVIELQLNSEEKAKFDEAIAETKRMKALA
assay-details: APTEC plate capture assay (enzyme activity of captured PfLDH), logistic fit; 2x PBS binding buffer (recombinant PfLDH), 1 h, streptavidin plate coated with DNA, PBST (0.1% Tween-20) washes, absorbance 570 nm; blood: 1:1 with PBS 0.5% Triton X-100; pH and temperature not stated
condition-description: protein: recombinant; tags: His (HisTrap purified); chain copies: 4; label: 5' biotin; single strand
recorded-metric: pKd
# pKd = -log10(concentration in molar units)

Give a short answer stating reported pKd for CTGGGCGGTAGAACCATAGTGACCCAGCCGTCTAC (structured_DNA) [PfLDH aptamer alone (Apt)] .
7.90

The values you see were collected from paper PMC6099927.
